experiment: Metabolic stability in human microsomes assessed as half life; type: ADME, Microsome
value-kind: half-life (h)

| compound-structure | uom | value |
| --- | --- | --- |
| O=C1c2cc(-c3ccc(OC(F)(F)F)cc3)ccc2OCCN1CCc1ncccn1 | h | 0.467 |
| O=C1c2cc(-c3ccc(OC(F)(F)F)cc3)ccc2CCN1Cc1ncccn1 | h | 6.58 |
| O=C1c2cc(-c3ccc(C(F)(F)F)cc3)ccc2CCN1Cc1ncccn1 | h | 5.07 |

a: COc1ccnc(CN2CCOc3ccc(-c4ccc(OC(F)(F)F)cc4)cc3C2=O)n1
b: O=C1c2cc(-c3ccc(OC(F)(F)F)cc3F)ccc2OCCN1Cc1ncccn1
Pick one: a or b . Which one has the lower reported half-life? Label of pick, please.
b

---

assay: Ratio of drug concentration in brain to plasma of coronary artery occlusion-induced ischemia-reperfusion injury rabbit model intravenously administered with compound for 30 mins measured by LC-MS/MS analysis; type: ADME, Oryctolagus cuniculus; settings: brain and plasma, iv, read-out: BPR
value-kind: Kp at 0.5 h
Just the number, please, no unit after it.

| compound-structure | value-kind | value |
| --- | --- | --- |
| O=c1c2cc(-c3ccc(C(F)(F)F)cc3)ccc2nnn1Cc1nnc(C2CC2)o1 | Kp at 0.5 h | 0.86 |
| Cc1noc(Cn2cnc3ccc(-c4ccc(OC(F)(F)F)cc4)cc3c2=O)n1 | Kp at 0.5 h | 15 |

We now examine a further compound.
Entry Cc1noc(Cn2ncc3ccc(-c4ccc(OC(F)(F)F)cc4)cc3c2=O)n1 , Kp at 0.5 h reported as 4.4

---

system: Oryctolagus cuniculus; assay: Cardioprotective activity in New Zealand rabbit model of LAD coronary artery occlusion-induced ischemia-reperfusion injury assessed as inhibition of ST segment elevation intravenously administered with compound for 30 mins followed by induction of ischemia for 15 mins and subsequent reperfusion for 15 mins by electrocardiographic analysis; assay type: functional
value-kind: EC50 (nM)
Please give a number only; it is taken to be in nM.

Below, 3 molecules whose answers are already recorded.
| molecule | EC50 [nM] |
| --- | --- |
| O=C1c2cc(-c3ccc(C(F)(F)F)cc3)ccc2OCCN1Cc1ncccn1 | 300 |
| COc1ccccc1OCC(O)CN1CCN(CC(=O)Nc2c(C)cccc2C)CC1 (centres undefined) | 8000 |
| O=c1c2cc(-c3ccc(C(F)(F)F)cc3)ccc2nnn1Cc1nnc(C2CC2)o1 | 970 |

Entry O=C1c2cc(-c3ccc(OC(F)(F)F)cc3)ccc2OCCN1Cc1ncccn1 , EC50 reported as 190

---

target: NaV1.5 (Homo sapiens); experiment: Inhibition of human NaV1.5 expressed in HEK293 cells assessed as inhibition of peak sodium current measured at frequency 3 Hz at -20 mV resting membrane potential at 3 uM by electrophysiology assay relative to control; format: cell-based; conditions: HEK293 cells expressing human NaV1.5
Sequence (Q14524 whole entry): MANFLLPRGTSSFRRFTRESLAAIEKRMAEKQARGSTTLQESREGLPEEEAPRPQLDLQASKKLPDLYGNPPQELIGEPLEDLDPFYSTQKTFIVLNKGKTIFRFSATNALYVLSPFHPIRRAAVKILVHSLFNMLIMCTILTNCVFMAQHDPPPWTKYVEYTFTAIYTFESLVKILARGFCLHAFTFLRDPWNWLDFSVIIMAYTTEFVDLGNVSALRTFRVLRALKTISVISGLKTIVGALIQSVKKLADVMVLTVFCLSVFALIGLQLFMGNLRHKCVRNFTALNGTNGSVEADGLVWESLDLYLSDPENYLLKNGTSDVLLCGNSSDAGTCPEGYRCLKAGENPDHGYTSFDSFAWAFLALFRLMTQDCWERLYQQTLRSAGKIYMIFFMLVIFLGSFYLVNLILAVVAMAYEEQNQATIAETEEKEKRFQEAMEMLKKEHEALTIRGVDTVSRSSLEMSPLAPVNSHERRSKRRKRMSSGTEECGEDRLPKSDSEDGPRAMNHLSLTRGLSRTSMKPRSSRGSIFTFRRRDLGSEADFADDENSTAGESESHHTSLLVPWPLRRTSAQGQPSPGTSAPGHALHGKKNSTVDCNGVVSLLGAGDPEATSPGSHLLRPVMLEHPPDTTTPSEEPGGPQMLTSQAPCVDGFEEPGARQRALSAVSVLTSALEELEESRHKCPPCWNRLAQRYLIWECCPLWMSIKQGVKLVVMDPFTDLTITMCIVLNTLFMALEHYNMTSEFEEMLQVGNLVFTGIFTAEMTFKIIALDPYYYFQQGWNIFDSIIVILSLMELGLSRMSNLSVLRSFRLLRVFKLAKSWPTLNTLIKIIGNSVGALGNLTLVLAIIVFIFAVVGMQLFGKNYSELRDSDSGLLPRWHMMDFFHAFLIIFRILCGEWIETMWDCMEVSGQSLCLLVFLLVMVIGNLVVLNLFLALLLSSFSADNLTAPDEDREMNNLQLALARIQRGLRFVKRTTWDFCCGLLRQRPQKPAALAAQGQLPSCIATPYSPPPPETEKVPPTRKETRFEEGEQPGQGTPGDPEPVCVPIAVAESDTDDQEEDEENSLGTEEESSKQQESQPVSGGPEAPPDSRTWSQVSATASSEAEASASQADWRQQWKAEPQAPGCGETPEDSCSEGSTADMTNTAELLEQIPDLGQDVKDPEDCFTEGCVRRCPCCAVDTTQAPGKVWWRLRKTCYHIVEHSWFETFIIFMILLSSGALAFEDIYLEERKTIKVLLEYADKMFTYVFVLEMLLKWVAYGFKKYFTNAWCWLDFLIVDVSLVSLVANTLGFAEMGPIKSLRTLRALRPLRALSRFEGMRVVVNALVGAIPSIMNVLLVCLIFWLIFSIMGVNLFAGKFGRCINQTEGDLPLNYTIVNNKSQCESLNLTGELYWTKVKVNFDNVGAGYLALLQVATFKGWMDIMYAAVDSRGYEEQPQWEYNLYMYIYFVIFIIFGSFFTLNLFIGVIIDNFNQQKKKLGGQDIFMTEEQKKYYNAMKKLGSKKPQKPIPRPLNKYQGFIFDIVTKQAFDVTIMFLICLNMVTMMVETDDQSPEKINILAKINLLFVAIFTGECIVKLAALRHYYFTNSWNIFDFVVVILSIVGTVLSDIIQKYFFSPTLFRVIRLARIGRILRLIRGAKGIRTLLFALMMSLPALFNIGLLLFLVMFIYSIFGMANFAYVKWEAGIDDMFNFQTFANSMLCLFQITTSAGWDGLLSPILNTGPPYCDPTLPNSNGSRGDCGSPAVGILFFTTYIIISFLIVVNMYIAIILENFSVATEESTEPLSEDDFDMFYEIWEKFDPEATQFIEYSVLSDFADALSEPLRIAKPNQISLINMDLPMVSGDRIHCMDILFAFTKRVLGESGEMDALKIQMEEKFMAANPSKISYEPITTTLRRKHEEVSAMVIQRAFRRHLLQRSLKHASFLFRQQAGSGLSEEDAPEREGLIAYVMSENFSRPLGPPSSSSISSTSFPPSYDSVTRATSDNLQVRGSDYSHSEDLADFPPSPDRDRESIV
// values below are reported inhibition at 3 µM
Please give a number only; it is taken to be in %.

Below, 4 compounds whose answers are already recorded.
| compound | inhibition at 3 µM (%) |
| --- | --- |
| O=C1c2cc(-c3ccc(OC(F)(F)F)cc3)ccc2OCCN1Cc1ncccn1 [ELECLAZINE] | 24 |
| O=C1c2cc(-c3ccc(Cl)cc3)ccc2OCCN1Cc1ncccn1 | 17 |
| Nc1ccnc(CN2CCOc3ccc(-c4ccc(OC(F)(F)F)cc4)cc3C2=O)n1 | 37 |
| O=C1c2cc(-c3cccc(OC(F)(F)F)c3)ccc2OCCN1Cc1ncccn1 | 3 |

Entry O=C1c2cc(-c3ccc(OC(F)(F)F)cc3)ccc2OCCN1CCc1ncccn1 , inhibition at 3 µM reported as 13

Entry O=C1c2cc(-c3ccc(OC(F)(F)F)cc3F)ccc2OCCN1Cc1ncccn1 , inhibition at 3 µM reported as 37

Entry O=C1c2cc(-c3ccc(C(F)(F)F)cc3)ccc2OCCN1Cc1ncccn1 , inhibition at 3 µM reported as 27

Entry O=C1c2cc(-c3ccc(OC(F)(F)F)c(Cl)c3)ccc2OCCN1Cc1ncccn1 , inhibition at 3 µM reported as 15

---

biological target: Sodium channel protein type 8 subunit alpha (Homo sapiens, UniProt Q9UQD0); experiment: Inhibition of NaV1.6 (unknown origin) at 10 Hz frequency by whole cell manual patch clamp technique
Sequence (Q9UQD0 whole entry): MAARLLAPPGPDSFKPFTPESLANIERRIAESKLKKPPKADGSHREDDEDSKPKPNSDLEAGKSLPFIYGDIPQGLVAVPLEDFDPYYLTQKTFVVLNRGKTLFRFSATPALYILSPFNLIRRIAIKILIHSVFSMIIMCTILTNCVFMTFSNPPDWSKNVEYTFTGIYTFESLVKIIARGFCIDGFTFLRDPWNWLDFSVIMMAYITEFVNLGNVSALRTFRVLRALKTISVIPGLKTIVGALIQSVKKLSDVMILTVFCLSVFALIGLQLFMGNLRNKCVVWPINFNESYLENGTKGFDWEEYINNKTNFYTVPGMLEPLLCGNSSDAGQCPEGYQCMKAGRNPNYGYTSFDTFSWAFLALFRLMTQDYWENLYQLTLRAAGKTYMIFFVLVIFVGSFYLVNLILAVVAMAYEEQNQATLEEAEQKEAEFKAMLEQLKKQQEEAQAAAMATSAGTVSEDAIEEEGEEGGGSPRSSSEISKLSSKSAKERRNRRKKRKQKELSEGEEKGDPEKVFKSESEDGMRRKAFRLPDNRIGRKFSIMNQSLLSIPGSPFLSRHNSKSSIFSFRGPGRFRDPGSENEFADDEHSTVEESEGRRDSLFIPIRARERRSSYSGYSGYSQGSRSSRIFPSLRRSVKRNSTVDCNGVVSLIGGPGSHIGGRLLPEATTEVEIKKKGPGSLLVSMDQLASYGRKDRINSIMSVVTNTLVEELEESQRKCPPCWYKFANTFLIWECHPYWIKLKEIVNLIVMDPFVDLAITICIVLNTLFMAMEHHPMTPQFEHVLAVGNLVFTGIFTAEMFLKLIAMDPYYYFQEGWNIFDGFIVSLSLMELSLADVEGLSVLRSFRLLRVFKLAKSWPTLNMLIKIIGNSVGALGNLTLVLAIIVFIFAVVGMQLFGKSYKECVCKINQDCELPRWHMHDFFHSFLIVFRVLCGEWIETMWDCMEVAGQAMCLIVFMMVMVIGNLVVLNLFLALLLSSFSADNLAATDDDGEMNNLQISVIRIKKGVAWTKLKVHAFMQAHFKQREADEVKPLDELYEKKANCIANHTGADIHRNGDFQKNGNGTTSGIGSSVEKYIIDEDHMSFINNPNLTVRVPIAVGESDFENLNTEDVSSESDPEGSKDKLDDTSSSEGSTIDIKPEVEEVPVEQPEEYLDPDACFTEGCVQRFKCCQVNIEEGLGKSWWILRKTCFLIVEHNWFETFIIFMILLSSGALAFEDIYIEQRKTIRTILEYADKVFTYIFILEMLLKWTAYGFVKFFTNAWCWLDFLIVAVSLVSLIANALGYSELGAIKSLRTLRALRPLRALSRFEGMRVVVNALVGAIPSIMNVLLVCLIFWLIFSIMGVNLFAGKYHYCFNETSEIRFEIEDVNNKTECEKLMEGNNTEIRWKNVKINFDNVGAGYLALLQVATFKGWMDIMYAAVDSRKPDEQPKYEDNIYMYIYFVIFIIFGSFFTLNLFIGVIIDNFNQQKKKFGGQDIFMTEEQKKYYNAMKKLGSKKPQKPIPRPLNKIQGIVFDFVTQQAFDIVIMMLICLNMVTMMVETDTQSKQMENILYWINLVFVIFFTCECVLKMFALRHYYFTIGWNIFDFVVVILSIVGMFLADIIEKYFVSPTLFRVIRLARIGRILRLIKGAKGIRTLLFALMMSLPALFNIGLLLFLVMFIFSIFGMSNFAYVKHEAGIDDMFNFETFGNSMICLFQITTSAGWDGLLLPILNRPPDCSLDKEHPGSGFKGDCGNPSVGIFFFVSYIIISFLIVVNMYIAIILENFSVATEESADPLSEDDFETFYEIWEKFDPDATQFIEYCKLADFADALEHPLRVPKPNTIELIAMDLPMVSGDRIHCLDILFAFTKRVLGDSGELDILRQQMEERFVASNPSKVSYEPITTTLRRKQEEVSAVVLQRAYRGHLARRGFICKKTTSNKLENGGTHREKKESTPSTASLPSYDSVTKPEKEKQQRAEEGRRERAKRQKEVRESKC
value-kind: IC50 (µM)
Please give a number only; it is taken to be in µM.

Entry O=C1c2cc(-c3ccc(OC(F)(F)F)cc3)ccc2OCCN1Cc1ncccn1 , IC50 reported as 28

---

test: Metabolic stability in rat microsomes assessed as half life; format: ADME, Microsome
value-kind: half-life (min)

| compound-structure | half-life / min |
| --- | --- |
| O=C1c2cc(-c3ccc(OC(F)(F)F)cc3F)ccc2OCCN1Cc1ncccn1 | 308 |

a: O=C1c2cc(-c3cccc(OC(F)(F)F)c3)ccc2OCCN1Cc1ncccn1
b: O=C1c2cc(-c3ccc(Cl)cc3)ccc2OCCN1Cc1ncccn1
Please state the entry with greater half-life among a and b . Label of pick, please.
a

---

species on record: Homo sapiens; experiment: Inhibition of late sodium current channel (unknown origin) at 1 uM at 25 Hz frequency by whole cell patch clamp technique relative to control
value-kind: inhibition (%)

| compound-structure | value |
| --- | --- |
| O=C1c2cc(-c3ccccc3OC(F)(F)F)ccc2OCCN1Cc1ncccn1 | 26 |
| COc1ccc(-c2ccc3c(c2)C(=O)N(Cc2ncccn2)CCO3)cc1 | 13 |
| O=C1c2cc(-c3ccccc3)ccc2OCCN1Cc1ncccn1 | 18 |
| CC(=O)Nc1ccnc(CN2CCOc3ccc(-c4ccc(OC(F)(F)F)cc4)cc3C2=O)n1 | 6 |
| O=c1c2cc(-c3ccc(C(F)(F)F)cc3)ccc2nnn1Cc1nnc(C2CC2)o1 | 51 |
| Cc1noc(Cn2cnc3ccc(-c4ccc(OC(F)(F)F)cc4)cc3c2=O)n1 | 48 |

P: O=C1c2cc(-c3ccc(C(F)F)cc3)ccc2OCCN1Cc1ncccn1
Q: Cc1noc(Cn2ncc3ccc(-c4ccc(OC(F)(F)F)cc4)cc3c2=O)n1
Pick one: P or Q . Which one has the lower reported inhibition? Label of pick, please.
P
(P: 17%, Q: 39%)

I: CC(=O)Nc1cc(OC(F)(F)F)ccc1-c1ccc2c(c1)C(=O)N(Cc1ncccn1)CCO2
II: O=C1c2cc(-c3ccc(OC(F)F)cc3)ccc2OCCN1Cc1ncccn1
Pick one: I or II . Which one has the lower reported inhibition? Label of pick, please.
I
(I: 4%, II: 13%)

---

assay: Oral bioavailability in cynomolgus monkey; type: ADME, organism-based, Macaca fascicularis; conditions: in vivo
value-kind: bioavailability (%)
Please give a number only; it is taken to be in %.

Entry O=C1c2cc(-c3ccc(OC(F)(F)F)cc3)ccc2OCCN1Cc1ncccn1 , bioavailability reported as 39

---

assay: Inhibition of late sodium current channel (unknown origin) at 25 Hz frequency by whole cell patch clamp technique; conditions: Homo sapiens
value-kind: IC50 (µM)

I: O=C1c2cc(-c3ccc(C(F)(F)F)cc3)ccc2OCCN1Cc1ncccn1
II: O=C1c2cc(-c3ccc(OC(F)(F)F)cc3)ccc2CCN1Cc1ncccn1
III: O=C1c2cc(-c3ccc(OC(F)(F)F)cc3)ccc2OCCN1Cc1ncccc1F
IV: O=C1c2cc(-c3ccc(OC(F)(F)F)cc3)ccc2OCCN1Cc1ccccn1
Please put the entries in order of rising IC50. Please write the labels in the order that was asked for.
III, IV, I, II

P: O=C1c2cc(-c3ccc(OC(F)(F)F)cc3)ccc2OCCN1Cc1ncccn1
Q: O=C1c2cc(-c3ccc(OC(F)(F)F)cc3F)ccc2OCCN1Cc1ncccn1
Please state the entry with greater IC50 among P and Q . Label of pick, please.
Q
(Q: 1.28 µM, P: 0.88 µM)

---

test: Half-life in iv dosed Beagle dog; format: ADME, organism-based, Canis lupus familiaris; conditions: in vivo
value-kind: half-life (h)
Please give a number only; it is taken to be in h.

Entry O=C1c2cc(-c3ccc(OC(F)(F)F)cc3)ccc2OCCN1Cc1ncccn1 [ELECLAZINE] , half-life reported as 27.9

---

target: Sodium channel protein type 8 subunit alpha (Homo sapiens, UniProt Q9UQD0); assay: Inhibition of NaV1.6 (unknown origin) at 25 Hz frequency by whole cell manual patch clamp technique
value-kind: pIC50
The scale used: pIC50 is minus the common logarithm of the concentration in molar units.

Entry O=C1c2cc(-c3ccc(OC(F)(F)F)cc3)ccc2OCCN1Cc1ncccn1 , pIC50 reported as 5.40

---

test: Volume of distribution at steady state in iv dosed Beagle dog; assay type: ADME, organism-based, Canis lupus familiaris; conditions: in vivo, read-out: Vdss
value-kind: Vd (L/kg)
Please give a number only; it is taken to be in L/kg.

Entry O=C1c2cc(-c3ccc(OC(F)(F)F)cc3)ccc2OCCN1Cc1ncccn1 , Vd reported as 1.6

---

assay: Half-life in iv dosed cynomolgus monkey; type: ADME, organism-based, Macaca fascicularis; conditions: in vivo
value-kind: half-life (h)
Please give a number only; it is taken to be in h.

Entry O=C1c2cc(-c3ccc(OC(F)(F)F)cc3)ccc2OCCN1Cc1ncccn1 , half-life reported as 5
